# systemName: T1, 4H568-bA
# T1 chain: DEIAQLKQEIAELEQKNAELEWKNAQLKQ
# experimentalProtocol: two-hybrid library CCNG1;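 note: natural log of median RNA to DNA barcode read ratio; higher means stronger binding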
So basically: is interaction score under -0.3? Then Yes. Not under? Then No.

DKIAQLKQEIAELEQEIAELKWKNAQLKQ [4H2576-bA] = No
DKNAQLKQKIAELEQEIAELEWENAQLEQ [4H3843-bA] = Yes

Task: Decide: interaction score of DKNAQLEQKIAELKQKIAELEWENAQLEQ [4H3427-bA] strictly below -0.3?
Result: No

Task: Decide: interaction score of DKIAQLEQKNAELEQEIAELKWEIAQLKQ [4H2442-bA] strictly below -0.3?
Result: Yes

Task: # check: interaction score < -0.3 for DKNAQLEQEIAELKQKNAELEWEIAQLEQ [4H3185-bA]
Result: Yes

Task: Please check: interaction score for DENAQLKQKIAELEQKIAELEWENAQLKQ [4H1828-bA] , strictly under -0.3 or not?
Result: No
